Test system: sAPPβ release in SH-SY5Y cells
Experiment: sAPPβ release assay
Format: cell-based
Conditions: 17 h incubation
Property Name: IC50
Could you give the number and then its unit, please?

CC#Cc1cncc(-c2ccc3c(c2)C2(N=C(N)C(CC)=N2)[C@]2(CC[C@H](OC)CC2)C3)c1 (single isomer, unassigned; isomer 1) [Example 68 Isomer 1] = 0.38 nM

// lookup IC50 for CCC1=NC2(N=C1N)c1cc(-c3cccc(C#N)c3)ccc1C[C@]21CC[C@@H](OC)CC1 (single isomer, unassigned; isomer 2) [Example 71 Isomer 2]
763 nM

Another compound to look at: CCC1=NC2(N=C1N)c1cc(-c3cncc(Cl)c3)ccc1C[C@]21CC[C@@H](OC)CC1 (single isomer, unassigned; isomer 1) [Example 66 Isomer 1]
1.6 nM

Another compound to look at: CCC1=NC2(N=C1N)c1cc(-c3cccc(C#N)c3)ccc1C[C@]21CC[C@@H](OC)CC1 (single isomer, unassigned; isomer 1) [Example 71 Isomer 1]
5.2 nM

Origin of measurements: patent US9918985B2
